Reported IC50 values follow for various molecules
Molecular target: UniProtKB P29990
Assay type: functional, Thailand/16681/1984

[[record]]
line_notation = "CC(C)n1nncc1-c1cc(F)cc(C(=O)Nc2ccc3c(c2)CNC3)c1"
reported_measurement = "> 100 µM"

[[record]]
line_notation = "Cc1cc(NC(=O)c2cc(Cl)cc3[nH]ncc23)ccc1N1CCNCC1"
reported_measurement = "> 100 µM"

[[record]]
line_notation = "Cn1nc(C(=O)Nc2ccc3c(c2)CNC3)c2cc(Br)ccc21"
reported_measurement = "> 100 µM"

[[record]]
line_notation = "CCNC(=O)c1ccc2c(c1)nc(N1CC[C@H](CO)C1)c(=O)n2CC"
reported_measurement = "> 100 µM"

[[record]]
line_notation = "O=C(Nc1ccc2c(c1)CNC2)c1ccc2[nH]ncc2c1"
reported_measurement = "> 100 µM"


# ---- query molecule ----
Enquiry: # IC50 lookup, item O=C(Nc1cc(Cl)cc([C@H](Nc2cccc(-c3nn[nH]n3)c2)C(=O)N[C@H]2CCOC2)c1)OCc1ccccc1
Return: 22.9 µM

====

Reported IC50 values follow for various molecules
Target: Genome polyprotein (dengue virus type 2)
Format: functional, Thailand/16681/1984
Respond with the bare value in µM.

Enquiry: # IC50 lookup, item C=CC[C@H](Nc1ccc(-c2nn[nH]n2)cc1)c1cc(Cl)cc(NC(=O)OCc2ccccc2)c1
Return: 6.6

Enquiry: # IC50 lookup, item NCc1ccc(NC(=O)[C@H]2[C@H]3CCCCC[C@H]3[C@H]2NC(=O)OCc2ccccc2)cc1
Return: 57.4

====

Biological target: Genome polyprotein (dengue virus type 2)
Assay type: functional, Thailand/16681/1984
outcome measure: IC50

[[record]]
line_notation = "O=C(Nc1ccc2c(c1)CNC2)c1c[nH]c2ncc(F)cc12"
test_system = "Genome polyprotein (dengue virus type 2)"
reported_measurement = "> 99.5 µM"

[[record]]
line_notation = "O=C(Nc1cc(-c2cccnc2)ccn1)c1cccc(C2CC2)c1"
test_system = "Genome polyprotein (dengue virus type 2)"
reported_measurement = "> 99.5 µM"


Enquiry: # IC50 lookup, item O=C(Nc1ccc2c(c1)CNC2)c1cc(O)nc(C2CC2)c1
Return: > 99.5 µM

====

Target: Genome polyprotein (dengue virus type 2, UniProt P29990)
Sequence (P29990 1346-1475 limits assumed): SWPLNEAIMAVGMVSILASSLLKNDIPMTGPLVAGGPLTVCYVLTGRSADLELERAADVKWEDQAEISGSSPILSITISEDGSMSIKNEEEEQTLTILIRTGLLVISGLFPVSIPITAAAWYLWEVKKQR
Sequence (P29990 1476-2093 limits assumed): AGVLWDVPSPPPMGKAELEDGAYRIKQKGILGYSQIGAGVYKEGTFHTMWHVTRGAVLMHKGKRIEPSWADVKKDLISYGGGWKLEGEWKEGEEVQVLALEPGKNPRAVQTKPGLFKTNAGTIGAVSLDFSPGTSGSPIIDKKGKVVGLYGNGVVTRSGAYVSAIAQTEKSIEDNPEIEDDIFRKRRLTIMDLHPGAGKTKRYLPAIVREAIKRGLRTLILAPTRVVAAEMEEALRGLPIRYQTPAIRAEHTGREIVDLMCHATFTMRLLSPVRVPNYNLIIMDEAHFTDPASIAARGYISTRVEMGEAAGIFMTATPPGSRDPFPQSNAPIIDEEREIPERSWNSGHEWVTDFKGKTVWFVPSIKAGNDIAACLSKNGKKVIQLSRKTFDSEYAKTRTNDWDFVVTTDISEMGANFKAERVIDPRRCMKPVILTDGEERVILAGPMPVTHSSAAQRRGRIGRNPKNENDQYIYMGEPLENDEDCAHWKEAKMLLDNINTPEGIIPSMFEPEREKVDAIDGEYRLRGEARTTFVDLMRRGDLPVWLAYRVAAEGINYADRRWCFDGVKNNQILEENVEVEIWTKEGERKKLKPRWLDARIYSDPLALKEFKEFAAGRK
Assay type: functional, Thailand/16681/1984
Reported IC50 values follow for various compounds

[[record]]
line_notation = "NCc1cccc(NC(=O)[C@H](NC(=O)OCc2ccccc2)c2ccc(Br)cc2F)c1"
test_system = "Genome polyprotein (dengue virus type 2, UniProt P29990)"
reported_measurement = "66 µM"

[[record]]
line_notation = "O=C(O)c1cscc1NS(=O)(=O)c1ccc(Oc2ccccc2Cl)cc1"
test_system = "Genome polyprotein (dengue virus type 2, UniProt P29990)"
reported_measurement = "34.1 µM"


Enquiry: # IC50 lookup, item Cc1nnc(CN2CCC([C@H](NC(=O)OCc3ccccc3)C(=O)Nc3cccc(CN)c3)CC2)s1
Return: > 99.5 µM

Enquiry: # IC50 lookup, item CSc1cc(Cl)cc(C(=O)Nc2cccc(CN)c2)c1
Return: > 99.5 µM

Enquiry: # IC50 lookup, item NCc1cccc(NC(=O)c2cc(NC(=O)OCc3ccccc3)cc(C3CC3)c2)c1
Return: 76.1 µM

Enquiry: # IC50 lookup, item Cc1cc(C(=O)Nc2ccc3c(c2)CNC3)cc2nc[nH]c12
Return: > 99.5 µM

Enquiry: # IC50 lookup, item O=C1C[C@H]2[C@H](CCCN2C(=O)Nc2ccc3c(c2)CNC3)N1
Return: > 99.5 µM

Enquiry: # IC50 lookup, item O=C(Nc1ccc2c(c1)CNC2)c1cc(F)cc2[nH]c(-c3ccc(F)cc3O)nc12
Return: 62.1 µM

Enquiry: # IC50 lookup, item O=C(Nc1ccc2c(c1)CNC2)c1ccccn1
Return: > 99.5 µM

Enquiry: # IC50 lookup, item c1cc(CN2CCC(c3cscn3)CC2)[nH]n1
Return: > 99.5 µM

Enquiry: # IC50 lookup, item NCc1cccc(NC(=O)c2cc(OCc3ccccc3)ccc2CNC(=O)OCc2ccccc2)c1
Return: 24.8 µM

====

Biological target: Genome polyprotein (dengue virus type 2)
Format: functional, Thailand/16681/1984
Reported IC50 values follow for various molecules

Look over these answered cases.
[[record]]
line_notation = "CC(C)n1ncc2c(C(=O)Nc3ccc4c(c3)CNC4)cc(Cl)cc21"
reported_measurement = "> 100 µM"

[[record]]
line_notation = "Cc1cc(-c2ccc3[nH]c(C(=O)O)cc3c2)c(=O)n(Cc2ccccc2)c1"
reported_measurement = "> 100 µM"


# ---- query molecule ----
Enquiry: # IC50 lookup, item O=C(Nc1cc([C@H]2CCOC2)ccn1)c1cc(Cl)cc2[nH]ncc12
Return: > 100 µM

====

Molecular target: Genome polyprotein (dengue virus type 2)
Assay type: functional, Thailand/16681/1984
pIC50: −log10 of the molar value.
Reported pIC50 values follow for various compounds

Look over these answered cases.
[[record]]
line_notation = "CCN(C)S(=O)(=O)N1CCC([C@H](NC(=O)OCc2ccccc2)C(=O)Nc2cccc(CN)c2)CC1"
reported_measurement = "< 4.00"

[[record]]
line_notation = "CN(C)C(=O)C[C@H]1NCc2cc(NC(=O)c3cc(Cl)cc4[nH]ncc34)ccc21"
reported_measurement = "< 4.00"


# ---- query compound ----
Enquiry: Return pIC50 measured with Genome polyprotein (dengue virus type 2) given this compound: C[C@H]1Oc2ccc(NC(=O)c3cc(Cl)cc(NC(=O)OCc4ccccc4)c3)cc2NC1=O
Return: < 4.00

====

Biological target: Genome polyprotein (dengue virus type 2, UniProt P29990)
Format: functional, Thailand/16681/1984
pIC50: −log10 of the molar value.
outcome measure: pIC50

Look over these answered cases.
[[record]]
line_notation = "O=C(N[C@@H](C(=O)Nc1nc2c(s1)CNC2)c1ccc(OCc2ccccc2)cc1)OCc1ccccc1"
reported_measurement = "< 4.00"

[[record]]
line_notation = "Cc1oc(C2CC2)nc1C(=O)Nc1cc(-c2cccnc2)ccn1"
reported_measurement = "< 4.00"

[[record]]
line_notation = "C#Cc1cc(NC(=O)OCc2ccccc2)cc(C(=O)Nc2cccc(CN)c2)c1"
reported_measurement = 4.09

[[record]]
line_notation = "NCc1cccc(NC(=O)c2cc(NC(=O)OCc3ccccc3)ccc2C(F)(F)F)c1"
reported_measurement = "< 4.00"


# ---- query molecule ----
Enquiry: # pIC50 lookup, item CN(C)Cc1ccccc1CNC(=O)[C@@H](NC(=O)OCc1ccccc1)c1ccc(OCc2ccccc2)cc1
Return: < 4.00

====

Molecular target: Genome polyprotein (dengue virus type 2)
Type: functional, Thailand/16681/1984
outcome measure: IC50

[[record]]
line_notation = "C[C@@H](N)c1cccc(NC(=O)[C@@H](NC(=O)OCc2ccccc2)c2ccc(OCc3ccccc3)cc2)c1"
test_system = "Genome polyprotein (dengue virus type 2)"
reported_measurement = "> 99.5 µM"

[[record]]
line_notation = "C[C@H]1COCCN1C(=O)c1cc(Cl)ccc1NS(=O)(=O)c1ccc(Oc2ccccc2Cl)cc1"
test_system = "Genome polyprotein (dengue virus type 2)"
reported_measurement = "95.6 µM"


Enquiry: # IC50 lookup, item Clc1ccc2[nH]cc(Cc3ccc4c(c3)CNC4)c2c1
Return: > 99.5 µM

Enquiry: # IC50 lookup, item O=Cc1cc(Cl)cc(NC(=O)OCc2ccccc2)c1
Return: > 99.5 µM

====

Target: Genome polyprotein (dengue virus type 2)
Type: functional, Thailand/16681/1984
outcome measure: IC50

Look over these answered cases.
[[record]]
line_notation = "Cc1c(C(=O)Nc2cccc([C@H]3CCOC3)c2)cc(C2CC2)n1C"
reported_measurement = "> 99.5 µM"

[[record]]
line_notation = "CNc1c(-c2cc(Cl)cc(C3CC3)c2)nc2cc(C(=O)O)ccn12"
reported_measurement = "> 99.5 µM"

[[record]]
line_notation = "NCCc1cccc(NC(=O)c2cc(Cl)cc3[nH]ncc23)c1"
reported_measurement = "> 99.5 µM"

[[record]]
line_notation = "Cn1cnc2nc(Cl)cc(C(=O)Nc3ccc4c(c3)CNC4)c21"
reported_measurement = "> 99.5 µM"

[[record]]
line_notation = "CCOc1ccc(F)cc1-c1cn(CC)c(=O)c(N2CC[C@@H](CO)C2)n1"
reported_measurement = "> 99.5 µM"


Enquiry: # IC50 lookup, item O=C(Nc1ccc2c(c1)CNC2)c1ccc2nc(O)sc2c1
Return: > 99.5 µM

Enquiry: # IC50 lookup, item Cc1c(C(=O)Nc2cc(C(=O)N3CCC[C@H]3C(N)=O)ccn2)cc(C2CC2)n1C
Return: > 99.5 µM

Enquiry: # IC50 lookup, item COc1ccc(-c2cccc([C@@H](NC(=O)OCc3ccccc3)C(=O)Nc3cccc(CN)c3)c2)cn1
Return: > 99.5 µM

Enquiry: # IC50 lookup, item c1coc(CSCc2nc(-c3nc[nH]n3)no2)c1
Return: > 99.5 µM

Source: ChEMBL document CHEMBL5604063
